Entries annotated with measured TGI
- System: HOP-62 NSCLC
- assay_summary: NCI tumour cell line growth inhibition, 48 h
Just the number in µM, nothing appended.

# compound, TGI [µM]
data = [
    ("C=C1CC[C@@H]2[C@](C)(COC(C)=O)[C@H](OC(C)=O)CC[C@@]2(C)[C@@H]1C/C=C1/C(=O)OC[C@H]1OC(C)=O", 21.4),
    ("N#CC1=C(N)Oc2c(sc3c(F)cccc23)C1c1ccc(F)cc1 (stereo not drawn)", 19.2),
    ("O=C1c2ccccc2-c2c1c(-c1ccccc1)c1n2C2(C(=O)c3ccccc3C2=O)C2C(=O)N(c3ccccc3)C(=O)C12 (stereo not drawn)", 63.7),
]

Please examine the following record next.
HOP-62 NSCLC TGI of O=C(CN1C(=O)c2ccccc2C1=O)C(O)CN1C(=O)c2ccccc2C1=O (stereo not drawn) is 41.9

* * *

TGI: recorded values
- System: U251 CNS
- assay_summary: NCI tumour cell line growth inhibition, 48 h
Reply numerically in µM, unit not repeated.

# compound, unit_symbol, TGI
rows = [
    ("CN(C)CCCNc1ccc2nnn3c4ccc(OC(=O)c5ccc([N+](=O)[O-])cc5)cc4c(=O)c1c23", "µM", 33.9),
]

// next item, TGI requested
Short answer for O=C(CN1C(=O)c2ccccc2C1=O)C(O)CN1C(=O)c2ccccc2C1=O (stereo not given) : TGI was 91.5

* * *

- Tested on: SW-620 colon
- assay_summary: NCI tumour cell line growth inhibition, 48 h
TGI overview
Report the figure in µM without appending any unit label.

Illustrative cases are given below, each with its answer.
# molecule, unit_symbol, result_number
data = [
    ("CN1CCN(CCCCN2c3ccccc3Sc3ccc(N=[N+]=[N-])cc32)CC1", "µM", 6.85),
    ("C=C1C(=O)O[C@H]2[C@H]1CC/C(CNS(=O)(=O)c1cccc3ccccc13)=C\\CC[C@@]1(C)O[C@@H]21", "µM", 2.26),
    ("CSC(=S)OC1C(CO[Si](C)(C)C(C)(C)C)OC2OC(C)(C)OC21 (centres undefined)", "µM", 31.9),
]

API: the following record is the query input.
// C=C(C)[C@H](O)C(O)CC(C)[C@@H]1CCC23CC12CCC1[C@@]2(C)CCC(OC(C)=O)C(C)(C)C2CC(OC2OC(COC(C)=O)C(O)C(O)C2O)[C@]13C (some centres undefined) : TGI value = 12

* * *

- Test system: SK-OV-3 ovarian
- assay_summary: NCI tumour cell line growth inhibition, 48 h
observable: TGI

Here is how some molecules turned out for TGI.
# molecule, target_under_test, TGI
data = [
    ("COc1cc(/C=C2/C(=O)NC(Cc3cc(OC)c(OC)c(C)c3OC)C(=O)N2Cc2ccccc2)c(OC)c(C)c1OC (centres undefined)", "SK-OV-3 ovarian", "> 100 µM"),
    ("O=S1c2ccccc2SCSc2ccccc21", "SK-OV-3 ovarian", "> 100 µM"),
    ("N#CC(NNC(=O)c1ccccc1O)c1ccccc1 (centres undefined)", "SK-OV-3 ovarian", "> 100 µM"),
    ("[O-]c1c[n+](CC[n+]2cc([O-])on2)no1", "SK-OV-3 ovarian", "> 100 µM"),
]

Short answer for C=C1C(=O)O[C@H]2[C@H]1CC/C(CNS(=O)(=O)c1cccc3ccccc13)=C\CC[C@@]1(C)O[C@@H]21 : TGI was 24.5 µM

Value of TGI reported for the molecule CCOc1ccccc1NC(=O)C1=C(C)NC(C)=C(C(=O)Nc2ccccc2OCC)C1c1ccc(NC(C)=O)cc1 is 67.5 µM

* * *

- Tested on: MDA-MB-231 breast
- assay_summary: NCI tumour cell line growth inhibition, 48 h
observable: GI50

# compound, GI50
data = [
    ("CS(=O)(=O)Nc1cc(-c2ccc3ncnc(Nc4ccc5c(cnn5Cc5ccccc5F)c4)c3c2)cnc1Cl", "1510 nM"),
    ("COc1ccc2c(c1)OC(N)=C(C#N)C2c1ccc(F)cc1 (stereo not given)", "3090 nM"),
    ("Cc1nn(-c2nc3ccccc3[nH]2)c2c1C(c1ccc3c(c1)OCO3)CC(=O)N2 (stereo not given)", "2180 nM"),
]

GI50 reported for this compound CCCCCCCCCCCC[n+]1ccc(C(N)=O)cc1 : 2910 nM

Reported GI50 for CCOC(=O)C#Cc1c(CC(=O)OCC)nnn1[C@H]1O[C@@H](CO)[C@@H]2OC(C)(C)O[C@@H]21 was 4620 nM

What the record says about CN(C)c1ccc(O)c2c1C[C@H]1C[C@H]3[C@H](N(C)C)C(=O)C(C(N)=O)=C(O)[C@@]3(O)C(=O)C1=C2O : GI50 is 10500 nM

The compound identified as N#CC1=C(N)Oc2c(sc3c(F)cccc23)C1c1ccc(F)cc1 (stereo not given) registered its GI50 at 1440 nM

According to the records, this compound COc1cccc2c(=O)c3c(sc12)c(NCCN(C)C)nc1ccccc13 displays GI50 of 1340 nM

COC(=O)[C@@]1(O)C[C@H]2O[C@]1(C)n1c3ccccc3c3c4c(c5c6ccccc6n2c5c31)C(=O)NC4 yielded GI50 of 429 nM

Short answer for COc1ccc2nc(C)cc(Nc3ccccc3O)c2c1 : GI50 was 27900 nM

* * *

- Test system: SW-620 colon
- assay_summary: NCI tumour cell line growth inhibition, 48 h
observable: TGI

Guide cases for TGI, answers given:
# compound, TGI
rows = [
    ("CN(C)CCNC(=O)c1cc(-c2nccn2C)nc2ccccc12", "> 100 µM"),
    ("CC(=O)c1c[nH]cc1CO", "> 10 µM"),
    ("O=c1n(CCCCn2c(=O)n(CC3CS3)c3ccccc32)c2ccccc2n1CC1CS1 (centres undefined)", "39.8 µM"),
    ("CC1SC(=O)SC1C (centres undefined)", "> 100 µM"),
    ("O=C(CC(C(=O)c1cccs1)c1ccsc1)c1ccco1 (centres undefined)", "> 100 µM"),
]

Please fill in: TGI reported for COc1ccc2c(c1)N=C1CSC(c3c(Cl)cccc3[N+](=O)[O-])N1C2 (centres undefined) = > 100 µM

* * *

- Tested on: HS 578T breast
- assay_summary: NCI tumour cell line growth inhibition, 48 h; in the data active = GI50 below about 0.43 µM; inactive = the rest
Form entry, call: pick from active, inactive

Recorded results for 5 compounds are shown here.
# compound, assigned_category
data = [
    ("CSC1C(=O)c2ccccc2/C(=N/Nc2nc3ccccc3s2)C1C (configuration not stated)", "inactive"),
    ("Oc1ccc(N=Nc2ccc(N=Nc3ccccc3)cc2)cc1", "inactive"),
    ("CCOC(=O)C#Cc1c(CC(=O)OCC)nnn1[C@H]1O[C@@H](CO)[C@@H]2OC(C)(C)O[C@@H]21", "inactive"),
    ("COc1ccc2nc(C)cc(Nc3ccccc3O)c2c1", "inactive"),
    ("COc1cc(/C=C/C(=O)c2c(C)n([O-])c3ccc(Cl)cc3[n+]2=O)cc(OC)c1OC", "inactive"),
]

Query: Short answer needed: outcome of this test for N#CC1=C(N)Oc2c(sc3c(F)cccc23)C1c1ccc(F)cc1 (configuration not stated) ?
Reply: active

Query: // return assay outcome for N=C(N)c1ccc(-c2ccc(-c3cccs3)s2)nc1
Reply: inactive

* * *

- System: COLO 205 colon
- assay_summary: NCI tumour cell line growth inhibition, 48 h
Where a SMILES comes first, the peptide text is derived from it. The star is where a group is joined. Cbz = O=C(OCc1ccccc1)*
observable: TGI

Some solved entries appear below for comparison.
# compound, TGI
rows = [
    ("COc1ccc(CCc2ccccc2CC(=O)O)cc1", "> 100 µM"),
    ("c1ccc(SC(CCCCOC2CCCCO2)Sc2ccccc2)cc1 (centres undefined)", "> 100 µM"),
    ("Oc1c(N=Nc2ccccc2)c2ccccc2c2ccc3ccccc3c12", "> 100 µM"),
]

Here S=C(Nc1ccccc1)N(Cc1ccccc1)c1ccccc1 was tested on COLO 205 colon, and its TGI came to 51.8 µM

Item CCOC(=O)C(CC(=O)OC)NC(=O)C(CC(=O)OC)NC(=O)C(CC(=O)OC)NC(=O)C(CC(=O)OC)NC(=O)OCc1ccccc1 (centres undefined) (Cbz-D(OMe)D(OMe)D(OMe)D(OMe)-OEt; configuration not given here) ; assay system COLO 205 colon; TGI reported as > 100 µM

* * *

- Tested on: A498 renal
- assay_summary: NCI tumour cell line growth inhibition, 48 h; in the data active = GI50 below about 0.43 µM; inactive = the rest
Please reply with one of these outcomes: active, inactive

Example entries and their recorded answers appear below.
# molecule, assigned_category
rows = [
    ("COc1cccc2c(=O)c3c(sc12)c(NCCN(C)C)nc1ccccc13", "inactive"),
    ("CCCCCCCCCCCC[n+]1ccc(C(N)=O)cc1", "inactive"),
    ("CN(C)c1ccc(O)c2c1C[C@H]1C[C@H]3[C@H](N(C)C)C(=O)C(C(N)=O)=C(O)[C@@]3(O)C(=O)C1=C2O", "inactive"),
    ("COc1ccc2c(c1)OC(N)=C(C#N)C2c1ccc(F)cc1 (stereo not given)", "inactive"),
    ("Oc1ccc(N=Nc2ccc(N=Nc3ccccc3)cc2)cc1", "inactive"),
]

Query: Assay result, entry COc1ccc2nc(C)cc(Nc3ccccc3O)c2c1 — outcome?
Reply: inactive

Query: Field: outcome | Entry: O=Cc1ccc(O)c2ncccc12
Reply: inactive

Query: Would you mind telling me which call this test gave C=C1CC[C@@H]2[C@](C)(COC(C)=O)[C@H](OC(C)=O)CC[C@@]2(C)[C@@H]1C/C=C1/C(=O)OC[C@H]1OC(C)=O ?
Reply: inactive

Query: Outcome logged for O=C(CCCCCCC(=O)Nc1ccc2c(c1)/C(=C/c1ccc[nH]1)C(=O)N2)NO in this assay:
Reply: active

Query: # fetch the recorded call for CC1/C(=N/Nc2ccc([N+](=O)[O-])cc2)CC2C3(C)CCC2(C(C)C(=O)O)C(=O)C13 (stereo not given) here
Reply: inactive
